Listed here: items and their measured mass density.
# testDescription: xn = mol fraction of the nth substance listed
# settings: 288.15 K; 101.32 kPa; Liquid; x2 = 0.1
Give the quantity in kg/m3, number only.

| compound | assayReadout | unitTag | measured |
| --- | --- | --- | --- |
| CCCCCl [1-chlorobutane] + CCCO | mass density | kg/m3 | 884.9 |
| CCCCCl [1-chlorobutane] + CO | mass density | kg/m3 | 887.2 |
| CCCCCl [1-chlorobutane] + CCCCO | mass density | kg/m3 | 884.3 |

Continue with the next compound.
Query block: Look up and state reported mass density for CCCCCl [1-chlorobutane] + CCO
Result block: 885.3
